Test system: SK-HEP-1 (Hepatocellular Carcinoma)
assay remarks: Bliss excess, mean over the matrix (fraction); higher = more synergy
# key: entry, value: Bliss excess
Reply with just the number.

[
  {
    "compound": "N#Cc1cnc(Nc2cc(NC[C@H]3CNCCO3)c(C(F)(F)F)cn2)cn1 [SRA737] + C=CCn1c(=O)c2cnc(Nc3ccc(N4CCN(C)CC4)cc3)nc2n1-c1cccc(C(C)(C)O)n1 [AZD1775] (first compound max 10 µM, partner max 1 µM)",
    "assay target": "SK-HEP-1 (Hepatocellular Carcinoma)",
    "Bliss excess": -0.0452
  },
  {
    "compound": "C[C@@H]1COCCN1c1cc(C2([S@](C)(=N)=O)CC2)nc(-c2ccnc3[nH]ccc23)n1 [AZD6738] + C1CC(C1)(C(=O)[O-])C(=O)[O-].N.N.[Pt+2] [Carboplatin] (first compound max 10 µM, 7x7, partner max 10 µM)",
    "assay target": "SK-HEP-1 (Hepatocellular Carcinoma)",
    "Bliss excess": -0.0469
  }
]

Turning now to a further record.
Query: // query Bliss excess value for entry Cc1c2c(nn1C)CSCc1cc(n(C)n1)CSc1cc(c3ccccc3c1)OCCCc1c(C(=O)O)n(C)c3c-2c(Cl)ccc13 [AZD5991] + CC(=O)O[C@H]1C(=O)[C@@]2(C)[C@H]([C@H](OC(=O)c3ccccc3)[C@]3(O)C[C@H](OC(=O)[C@H](O)[C@@H](NC(=O)c4ccccc4)c4ccccc4)C(C)=C1C3(C)C)[C@]1(OC(C)=O)CO[C@@H]1C[C@@H]2O [Paclitaxel] (first compound max 1 µM, 7x7, partner max 3 µM)
Result: -0.0587

* * *

Test system: EB2 (Burkitt's Lymphoma)
assay remarks: combination Emax (second highest fraction inhibited in the dose matrix, 72 h); higher = more inhibition; extreme values may be limits of the assay
Label MET for high-side combination Emax (at or above 0.8) and NOT MET for low-side combination Emax (below it).

Query: Could you please find out whether NC1(C(=O)N[C@@H](CCO)c2ccc(Cl)cc2)CCN(c2ncnc3[nH]ccc23)CC1 [Capivasertib] + C[C@@H]1COCCN1C2=NC(=NC(=C2)C3(CC3)[S@](=N)(=O)C)C4=C5C=CNC5=NC=C4 [AZD6738] (first compound max 10 µM, 7x7, partner max 10 µM) has combination Emax that meets 0.8 or exceeds it?
Result: MET

Query: Entry CC(=O)Nc1cccc(-n2c(=O)n(C3CC3)c(=O)c3c(Nc4ccc(I)cc4F)n(C)c(=O)c(C)c32)c1 [Trametinib] + Cc1nc(-c2cn3c(n2)-c2ccc(-c4cnn(C(C)(C)C(N)=O)c4)cc2OCC3)n(C(C)C)n1 [Taselisib] (first compound max 1 µM, 7x7, partner max 10 µM) : is its combination Emax no less than 0.8?
Result: NOT MET

Query: Reported combination Emax at or above 0.8? CC(=O)c1c(C)c2cnc(Nc3ccc(N4CCNCC4)cn3)nc2n(C2CCCC2)c1=O [Palbociclib] + Cn1cnc2c(F)c(Nc3ccc(Br)cc3Cl)c(C(=O)NOCCO)cc21 [Selumetinib] (first compound max 10 µM, 7x7, partner max 10 µM)
Result: NOT MET

Query: Reported combination Emax reaches at least 0.8 for CN(CCO)CC[C@H](CSc1ccccc1)Nc1ccc(S(=O)(=O)NC(=O)c2ccc(N3CCC([C@@H](O)c4ccccc4-c4ccc(Cl)cc4)CC3)cc2)cc1S(=O)(=O)C(F)(F)F [AZD4320] + C=CCn1c(=O)c2cnc(Nc3ccc(N4CCN(C)CC4)cc3)nc2n1-c1cccc(C(C)(C)O)n1 [AZD1775] (first compound max 1 µM, partner max 1 µM) ?
Result: MET

Query: Reported combination Emax reaches at least 0.8 for CCc1c2c(nc3ccc(O)cc13)-c1cc3c(c(=O)n1C2)COC(=O)[C@]3(O)CC [SN-38] + O=C(c1cc(Cc2n[nH]c(=O)c3ccccc23)ccc1F)N1CCN(C(=O)C2CC2)CC1 [Olaparib] (first compound max 0.3 µM, 7x7, partner max 10 µM) ?
Result: MET

* * *

Bliss excess overview
System: NCI-H2087 (Lung Adenocarcinoma)
assay remarks: Bliss excess, mean over the matrix (fraction); higher = more synergy

[
  {
    "compound": "CN(CCO)CC[C@H](CSc1ccccc1)Nc1ccc(S(=O)(=O)NC(=O)c2ccc(N3CCC([C@@H](O)c4ccccc4-c4ccc(Cl)cc4)CC3)cc2)cc1S(=O)(=O)C(F)(F)F [AZD4320] + CN(C)CCCOc1ccc(-c2ccc3ncc4c(c3c2)n(C2CCOCC2)c(=O)n4C)cn1 [AZD0156] (first compound max 1 µM, 7x7, partner max 1 µM)",
    "quantity name": "Bliss excess",
    "result": -0.0496
  }
]

// below: Bliss excess requested for another compound
Query: NCI-H2087 (Lung Adenocarcinoma) / Bliss excess / CN(C)CCCOc1ccc(-c2ccc3ncc4c(c3c2)n(C2CCOCC2)c(=O)n4C)cn1 [AZD0156] + O=C(c1cc(Cc2n[nH]c(=O)c3ccccc23)ccc1F)N1CCN(C(=O)C2CC2)CC1 [Olaparib] (first compound max 3 µM, partner max 3 µM) : value?
Result: -0.043

* * *

System: 769-P (Kidney Carcinoma)
assay remarks: Bliss excess, mean over the matrix (fraction); higher = more synergy
quantity name: Bliss excess

Please review the entries below; each comes with its answer.
[
  {
    "compound": "CC1(C)CCC(CN2CCN(c3ccc(C(=O)NS(=O)(=O)c4ccc(NCC5CCOCC5)c([N+](=O)[O-])c4)c(Oc4cnc5[nH]ccc5c4)c3)CC2)=C(c2ccc(Cl)cc2)C1 [Venetoclax] + CCN(CCO)CCCOc1ccc2c(Nc3cc(CC(=O)Nc4cccc(F)c4)[nH]n3)ncnc2c1 [AZD2811] (first compound max 1 µM, 7x7, partner max 1 µM)",
    "Bliss excess": -0.0637
  },
  {
    "compound": "Cn1cnc2c(F)c(Nc3ccc(Br)cc3Cl)c(C(=O)NOCCO)cc21 [Selumetinib] + CC(C)n1c(=O)n(C)c2cnc3cc(F)c(-c4ccc(OCCCN5CCCCC5)nc4)cc3c21 [AZD1390] (first compound max 10 µM, 7x7, partner max 0.3 µM)",
    "Bliss excess": 0.0125
  },
  {
    "compound": "CN(CCO)CC[C@H](CSc1ccccc1)Nc1ccc(S(=O)(=O)NC(=O)c2ccc(N3CCC([C@@H](O)c4ccccc4-c4ccc(Cl)cc4)CC3)cc2)cc1S(=O)(=O)C(F)(F)F [AZD4320] + CCN(CCO)CCCOc1ccc2c(Nc3cc(CC(=O)Nc4cccc(F)c4)[nH]n3)ncnc2c1 [AZD2811] (first compound max 1 µM, 7x7, partner max 1 µM)",
    "Bliss excess": 0.0052
  },
  {
    "compound": "C[C@@H](c1ccc2nccn2c1)n1nnc2ncc(-c3cnn(C)c3)nc21 [Savolitinib] + CC1(C)CCC(CN2CCN(c3ccc(C(=O)NS(=O)(=O)c4ccc(NCC5CCOCC5)c([N+](=O)[O-])c4)c(Oc4cnc5[nH]ccc5c4)c3)CC2)=C(c2ccc(Cl)cc2)C1 [Venetoclax] (first compound max 1 µM, 7x7, partner max 1 µM)",
    "Bliss excess": -0.0419
  },
  {
    "compound": "NC1(C(=O)N[C@@H](CCO)c2ccc(Cl)cc2)CCN(c2ncnc3[nH]ccc23)CC1 [Capivasertib] + Cn1cnc2c(F)c(Nc3ccc(Br)cc3Cl)c(C(=O)NOCCO)cc21 [Selumetinib] (first compound max 10 µM, 7x7, partner max 10 µM)",
    "Bliss excess": 0.0062
  },
  {
    "compound": "C=CCn1c(=O)c2cnc(Nc3ccc(N4CCN(C)CC4)cc3)nc2n1-c1cccc(C(C)(C)O)n1 [AZD1775] + C1CN(CCC1(C(=O)N[C@@H](CCO)C2=CC=C(C=C2)Cl)N)C3=NC=NC4=C3C=CN4 [Capivasertib] (first compound max 3 µM, partner max 3 µM)",
    "Bliss excess": -0.0475
  },
  {
    "compound": "NC1(C(=O)N[C@@H](CCO)c2ccc(Cl)cc2)CCN(c2ncnc3[nH]ccc23)CC1 [Capivasertib] + COc1nnc2ccc(N3CCC(c4ccc(OCCN5CCN(C)C(=O)[C@H]5C)cc4)CC3)nn12 [AZD5153] (first compound max 10 µM, 7x7, partner max 1 µM)",
    "Bliss excess": 0.055
  },
  {
    "compound": "COc1nnc2ccc(N3CCC(c4ccc(OCCN5CCN(C)C(=O)[C@H]5C)cc4)CC3)nn12 [AZD5153] + C=CCn1c(=O)c2cnc(Nc3ccc(N4CCN(C)CC4)cc3)nc2n1-c1cccc(C(C)(C)O)n1 [AZD1775] (first compound max 1 µM, partner max 1 µM)",
    "Bliss excess": -0.0321
  },
  {
    "compound": "COc1cc2ncnc(Nc3ccc(F)c(Cl)c3)c2cc1OCCCN1CCOCC1 [Gefitinib] + CC(C)n1c(=O)n(C)c2cnc3cc(F)c(-c4ccc(OCCCN5CCCCC5)nc4)cc3c21 [AZD1390] (first compound max 10 µM, 7x7, partner max 0.3 µM)",
    "Bliss excess": -0.0722
  },
  {
    "compound": "CS(=O)(=O)CCNCc1ccc(-c2ccc3ncnc(Nc4ccc(OCc5cccc(F)c5)c(Cl)c4)c3c2)o1 [Lapatinib] + NC1(c2ccc(-c3nc4ccn5c(=O)[nH]nc5c4cc3-c3ccccc3)cc2)CCC1 [MK-2206] (first compound max 10 µM, 7x7, partner max 10 µM)",
    "Bliss excess": 0.0372
  }
]

Query: State the recorded Bliss excess for this entry: COc1cccc(OCCCN)c1-c1cc(Nc2cnc(C#N)cn2)n[nH]1 [Prexasertib] + C=CCn1c(=O)c2cnc(Nc3ccc(N4CCN(C)CC4)cc3)nc2n1-c1cccc(C(C)(C)O)n1 [AZD1775] (first compound max 1 µM, partner max 1 µM)
Result: 0.0163

Query: Bench note: what Bliss excess did CN(CCO)CC[C@H](CSc1ccccc1)Nc1ccc(S(=O)(=O)NC(=O)c2ccc(N3CCC([C@@H](O)c4ccccc4-c4ccc(Cl)cc4)CC3)cc2)cc1S(=O)(=O)C(F)(F)F [AZD4320] + Cn1cnc2c(F)c(Nc3ccc(Br)cc3Cl)c(C(=O)NOCCO)cc21 [Selumetinib] (first compound max 1 µM, 7x7, partner max 3 µM) show?
Result: 0.0392

Query: Using the record for COc1nnc2ccc(N3CCC(c4ccc(OCCN5CCN(C)C(=O)[C@H]5C)cc4)CC3)nn12 [AZD5153] + Cc1c2c(nn1C)CSCc1cc(n(C)n1)CSc1cc(c3ccccc3c1)OCCCc1c(C(=O)O)n(C)c3c-2c(Cl)ccc13 [AZD5991] (first compound max 1 µM, 7x7, partner max 1 µM) , report its Bliss excess.
Result: -0.0716
